Target: T1, human GLP-1 receptor (human, UniProt P43220 24-463)
T1 construct: whole, on cells
Assay: competitive SPA, displacement of [125I]-GLP-1-(7-36)NH2 from BHK membranes with human GLP-1 receptor, high HSA (2.0%)
Description: 1. For the receptor binding assay in the presence of low HSA (0.005%) 50 μl of the assay buffer was added to each well of an assay plate. Assay continued with step 3. 2. […] The assay plate was read in a Packard TopCount NXT instrument. The data from the TopCount instrument were transferred to GraphPad Prism software. Individual replicates were analysed using non-linear regression.
Starred links: 1 amine or outer side, 2 acyl side, 3 side chain; linkers in the order of their positions; H or OH if unused. Non-standard residues stand in square brackets, D forms with d. Groups on a side chain read outwards from the residue. No end group written: not given here. *: point of attachment. Amino‑C3‑Gly(Bis) = branched linker 2-[bis(3-aminopropyl)amino]acetyl, two legs on the propylamino groups, O=C(CN(CCCN[*:1])CCCN[*:3])[*:2]; C20 diacid = O=C(O)CCCCCCCCCCCCCCCCCCC(=O)*; C18 diacid = O=C(O)CCCCCCCCCCCCCCCCC(=O)*; γGlu = O=C(O)[C@H](CCC(=O)[*:2])N[*:1]; Trx = NC[C@H]1CC[C@H](C(=O)O)CC1; AEEA = NCCOCCOCC(=O)O; Aib = CC(C)(N)C(=O)O
observed property: pIC50
Friendly reminder that pIC50 comes from taking -log10 of the concentration in mol/L.

Some solved cases for reference:
binder: H[Aib]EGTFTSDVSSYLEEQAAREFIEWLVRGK([AEEA-AEEA-AEEA-AEEA-Amino‑C3‑Gly(Bis)-code 2×γGlu-C18 diacid])G
pIC50: 6.96

binder: H[Aib]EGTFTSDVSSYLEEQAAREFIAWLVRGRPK([Amino‑C3‑Gly(Bis)-code 2×AEEA-AEEA-AEEA-AEEA-AEEA-AEEA-γGlu-Trx-C20 diacid]) (analogue (8Aib, 22E, 26R, 34R, 37P, 38K) GLP-1(7-37))
pIC50: 7.52

binder: H[Aib]EGTFTSDVSSYLEEQAAREFIAWLVRK([AEEA-AEEA-AEEA-AEEA-AEEA-AEEA-Amino‑C3‑Gly(Bis)-code 2×γGlu-Trx-C20 diacid])RG (X = Aib) [N{Epsilon-35}-[2-[2-[2-[[2-[2-[2-[[2-[2-[2-[[2-[2-[2-[[2-[2-[2-[[2- …]
pIC50: 8.14

Pending binder:
Lookup: Identify the reported pIC50 for the following entry. XXEGTFTSDVSSYLEEQAAREFIAWLVRGRK (not fully specified; Imp (imidazopropionic acid, deamino-histidine) at 7; Aib at 8; Lys37 epsilon-acylated with the branched side chain of the name (GLP-1(7-37) numbering, first residue = 7)) [N{Epsilon-37}-[2-[3-[[2-[2-[2-[[2-[2-[2-[[2-[2-[2-[[2-[2-[2-[[(2S)-2- …]
Found: 7.35
